test system: SK-MEL-2 melanoma; assay: NCI tumour cell line growth inhibition, 48 h
Answer each item with its documented TGI.

These recorded examples may help you get a feel for the data.
Q. May I ask what TGI has been recorded for `COc1cccc2c1c1nc3cc(C)c(C)cc3nc1n2CCN(C)C` ?
A. 4.39 µM

Q. May I ask what TGI has been recorded for [N-]=[N+]=CC(=O)OCC(N)C(=O)O (centres undefined) ?
A. > 100 µM

Hi! Can you tell me TGI for each of these molecules?
1. N#CC1=C(N)Nc2nc3ccccc3n2C1c1ccccc1 (centres undefined)
2. O=C1OC2(c3ccc(O)cc3Oc3cc(O)ccc32)c2c1c(-c1ccccc1)c(-c1ccccc1)c(-c1ccccc1)c2-c1ccccc1

A.
> 100 µM
36.3 µM

* * *

test system: IGROV1 ovarian; experiment: NCI tumour cell line growth inhibition, 48 h
Answer each item with its documented GI50.

Q. May I ask what GI50 has been recorded for CO[C@H](C(=O)N[C@@H](CCCCNC(=O)OCc1ccccc1)C(=O)OC(C)(C)C)[C@@H]1Cc2cc3cc(OC4CC(OC5CC(O)C(O)C(C)O5)C(O)C(C)O4)c(C)c(O)c3c(O)c2C(=O)[C@H]1OC1CC(OC2CC(OC3CC(C)(O)C(O)C(C)O3)C(O)C(C)O2)C(O)C(C)O1 (stereo partly drawn) ?
A. 449 nM

Q. May I ask what GI50 has been recorded for `C[C@]12CCC(=O)C=C1CC[C@@H]1[C@@H]2CC[C@]2(C)C(=O)/C(=C/c3cccc(OCCN4CCOCC4)c3)C[C@@H]12` ?
A. 23500 nM

In the following, a different compound is considered.
Q. May I ask what GI50 has been recorded for `Clc1ccc(CO/N=C(\Cn2ccnc2)c2ccc(Cl)cc2Cl)c(Cl)c1` ?
A. 1920 nM

* * *

system: HCT-116 colon; assay: NCI tumour cell line growth inhibition, 48 h
value_type: TGI (nM)
Numbers only, in nM.

Q. May I ask what TGI has been recorded for `COc1ccc(Nc2ccnc(NCCCNc3ccnc4cc(Cl)ccc34)n2)cc1` ?
A. 1540

Further cases:
Q. May I ask what TGI has been recorded for `CCCCCCCCCCCCNC1(C)CNCCCNCCNCCCNC1` ?
A. 2590

* * *

system: OVCAR-4 ovarian; assay: NCI tumour cell line growth inhibition, 48 h
Answer each item with its documented TGI.
Answers are plain numbers, in µM.

These recorded examples may help you get a feel for the data.
Q. May I ask what TGI has been recorded for `CO[C@H]1CC[C@@]2(C)C(=CC[C@H]3[C@@H]4C[C@H](O)C[C@@]4(C)CC[C@@H]32)C1` ?
A. 54.2

Q. May I ask what TGI has been recorded for `Clc1ccc2nc(CCSCCc3nc4ccc(Cl)cc4[nH]3)[nH]c2c1` ?
A. 28.5

Q. May I ask what TGI has been recorded for `Cn1cnc2c(NCc3ccccc3)nc(NCCO)nc21` ?
A. 339

Further cases:
Q. May I ask what TGI has been recorded for COC(=O)C1=CC2OC1(C)C1(CC1)C2=O (stereo not given) ?
A. 24

* * *

test system: OVCAR-5 ovarian; test: NCI tumour cell line growth inhibition, 48 h; in the data active = GI50 below about 0.43 µM; inactive = the rest
Give your call using only these classes: T for active, F for inactive

Q. Record lookup: outcome of this test for `COc1cccc2c1c1nc3cc(C)c(C)cc3nc1n2CCN(C)C` ?
A. F

Q. Record lookup: outcome of this test for `COc1ccc(Nc2ccnc(NCCCNc3ccnc4cc(Cl)ccc34)n2)cc1` ?
A. F

Q. Record lookup: outcome of this test for `COc1ccc2c(c1)Cc1c-2c(NN)nc2ccccc12` ?
A. F

Q. Record lookup: outcome of this test for `O=C1/C(=C/c2ccc(Cl)cc2)CN(C(=O)C(Cl)Cl)C/C1=C\c1ccc(Cl)cc1` ?
A. T

Q. Record lookup: outcome of this test for CC[C@H](C)C(=O)O[C@H]1CCC=C2C=C[C@H](C)C(CCC3C[C@@H](O)CC(=O)O3)[C@H]21 (some centres not stated) ?
A. F

Q. Record lookup: outcome of this test for `O=C1/C(=C/C(Cl)=C/c2ccccc2)SC(=S)N1CCc1ccc(O)cc1` ?
A. F

Q. Record lookup: outcome of this test for `CN1CCN(Cc2ccc(NC(=O)c3cncc(C#Cc4c(N)ncc5cc(F)ccc45)c3)cc2C(F)(F)F)CC1` ?
A. F

Q. Record lookup: outcome of this test for `CCNc1nc(N2CC(=O)Nc3cc(OC)ccc32)c2ccccc2n1` ?
A. T

Further cases:
Q. Record lookup: outcome of this test for CO[C@H](C(=O)N[C@@H](CCCCNC(=O)OCc1ccccc1)C(=O)OC(C)(C)C)[C@@H]1Cc2cc3cc(OC4CC(OC5CC(O)C(O)C(C)O5)C(O)C(C)O4)c(C)c(O)c3c(O)c2C(=O)[C@H]1OC1CC(OC2CC(OC3CC(C)(O)C(O)C(C)O3)C(O)C(C)O2)C(O)C(C)O1 (some centres not stated) ?
A. F

Q. Record lookup: outcome of this test for `COc1cnc2c(c1)C(=O)c1c-2n(CCCN2CCN(C)CC2)c(=O)c2cc(Cl)ccc12` ?
A. F

Q. Record lookup: outcome of this test for `C/C(=C\c1c[nH]c2ccccc12)[N+](=O)[O-]` ?
A. F

Q. Record lookup: outcome of this test for `c1ccc2cc(Cn3c(-c4ccc5ccccc5c4)[n+](Cc4ccc5ccccc5c4)c4ccccc43)ccc2c1` ?
A. T

* * *

system: LOX IMVI melanoma; experiment: NCI tumour cell line growth inhibition, 48 h; in the data active = GI50 below about 0.43 µM; inactive = the rest
Give your call using only these classes: active, inactive

Q. Record lookup: outcome of this test for `CC/C(=C(\CC)c1ccc(OCCN(CC)CC)cc1)c1ccc(OCCN(CC)CC)cc1` ?
A. inactive

Q. Record lookup: outcome of this test for `CO[C@H]1CC[C@@]2(C)C(=CC[C@H]3[C@@H]4C[C@H](O)C[C@@]4(C)CC[C@@H]32)C1` ?
A. inactive

* * *

tested on: SNB-19 CNS; test: NCI tumour cell line growth inhibition, 48 h
Answer each item with its documented TGI.

Q. May I ask what TGI has been recorded for COC(=O)C1=CC2OC13CC1CCC3(C2=O)C1(C)C (stereo not given) ?
A. 52.3 µM

Hi! Can you tell me TGI for each of these molecules?
1. Cc1ccc(C(=O)NC2CCCCC2)cc1-c1ccc(C(=O)NCC2CC2)cc1
2. CCNc1nc(N2CC(=O)Nc3cc(OC)ccc32)c2ccccc2n1
3. COC(=O)c1c(C(=O)OC)c(C(c2ccccc2)c2ccccc2)n(-c2ccccc2)c1Cl
4. C[C@]12CCC(=O)C=C1CC[C@@H]1[C@@H]2CC[C@]2(C)C(=O)/C(=C/c3cccc(OCCN4CCOCC4)c3)C[C@@H]12
5. Nc1ccc(C(=O)NN2C(=O)C(Cl)C2c2ccccc2O)cc1 (stereo not given)
6. O=C(O)CC1(C(=O)O)CCCCC1
7. C/C(=C\c1ccn(-c2ccc(N)cc2)n1)[C@@H]1C[C@@H]2O[C@]2(C)CCC[C@H](C)[C@H](O)[C@@H](C)C(=O)C(C)(C)[C@@H](O)CC(=O)O1
8. COc1ccc(/C(Cl)=C(\C=O)c2ccc(Cl)c(Cl)c2)cc1OC

A.
1: > 25 µM; 2: > 100 µM; 3: > 10 µM; 4: > 100 µM; 5: > 100 µM; 6: > 100 µM; 7: > 50 µM; 8: 65.9 µM

Q. May I ask what TGI has been recorded for `CC1(C)OC(=O)CC12CCN(Cc1ccccc1)CC2` ?
A. > 100 µM

* * *

system: K-562 leukemia; assay: NCI tumour cell line growth inhibition, 48 h
Answer each item with its documented TGI.

These recorded examples may help you get a feel for the data.
Q. # value lookup — system K-562 leukemia, readout TGI, item COc1ccc(N2C(=O)/C(=C\c3cc(OC)c(OC)c(OC)c3)S(=O)(=O)C2c2ccccc2)cc1 (stereo unspecified)
A. > 100 µM

Q. # value lookup — system K-562 leukemia, readout TGI, item `Nc1nncs1`
A. > 5000 µM

Q. # value lookup — system K-562 leukemia, readout TGI, item `COc1ccc(OC)c2cc(C3(C)SCCCS3)ccc12`
A. > 100 µM

Q. # value lookup — system K-562 leukemia, readout TGI, item `Cc1ccc(C(=O)NC2CCCCC2)cc1-c1ccc(C(=O)NCC2CC2)cc1`
A. > 25 µM

Q. # value lookup — system K-562 leukemia, readout TGI, item NC(=O)c1cc(C2OC(CO)C(O)C2O)nn1-c1ccc([N+](=O)[O-])cc1 (stereo unspecified)
A. > 100 µM

In the following, a different molecule is considered.
Q. # value lookup — system K-562 leukemia, readout TGI, item `O=C(O)Cc1[nH]cnc1C(=O)O`
A. > 100 µM

* * *

tested on: HOP-92 NSCLC; assay: NCI tumour cell line growth inhibition, 48 h
Answer each item with its documented TGI.
One number for each entry, in µM.

These recorded examples may help you get a feel for the data.
Q. May I ask what TGI has been recorded for `COC(=O)c1nc2c3c(cccc3c1C(=O)OC)Nc1ccccc1-2` ?
A. 50.2

Q. May I ask what TGI has been recorded for `CCC[CH2][Sn]([CH2]CCC)([S]C1=NCCS1)[S]C1=NCCS1` ?
A. 0.529

Q. May I ask what TGI has been recorded for `NC(=O)Oc1cc(OC(N)=O)cc(N(CCCl)CCCl)c1` ?
A. 7.87

Further cases:
Q. May I ask what TGI has been recorded for `C[C@]12CCC(=O)C=C1CC[C@@H]1[C@@H]2CC[C@]2(C)C(=O)/C(=C/c3cccc(OCCN4CCOCC4)c3)C[C@@H]12` ?
A. 31.7
